meta.source: patent US20050154189A1

# system-name: T1, Soluble CD28-Ig (human, UniProt P10747 19-152, biotin-conjugated (NHS-biotin) in the labelled-ligand FACS assays)
# T1 construct: extracellular domain; Bought from R&D Systems; also called sCD28-Ig; CD28-Ig Fc; not shown: Fc portion of human IgG1
# assay-overview: two-colour FACS profile on transfected cells; score of preference for CD28-Ig over CTLA-4-Ig vs WT hB7-1

binder	Binding Score
Round 1 CD28BP-126 (ligand, also called R1clone 126; Clone 126) ITPKSVTKRVKETVMLSCDYSTSTEELTSLRIYWQKDSKMVLAILPGKVQVWPEYKNRTITDMNDNPRIVILALRLSDSGTYTCVIQKPDLKGAYKLEHLTSVRLMIRADFPVPTINDLGNPSPNIRRLICSTSGGFPRPHLYWLENGEELNATNTTVSQDPGTELYMISSELDFNVTNNHSIVCLIKYGELSVSQIFPWSKPKQEPPIDQLPFWVIIPVSGALVLTAVVLYCLACRHVARWKRTRRNEETVGTERLSPIYLGSAQSSG	1
